biological target: T1, human CD1a expressed on cells (human, UniProt P06126 17-327; P61769 21-119); test: flow cytometry, MOLT4 cells, 0.316 µg/ml antibody
T1 construct: also called HEK - CD1a; C1R - CD1a
measurement.label: Fluorescence Intensity Geomean (normalized to background) (fold over background)

binder	result.value
111 (VR12113) (antibody, V domains shown, also called OX111) VH: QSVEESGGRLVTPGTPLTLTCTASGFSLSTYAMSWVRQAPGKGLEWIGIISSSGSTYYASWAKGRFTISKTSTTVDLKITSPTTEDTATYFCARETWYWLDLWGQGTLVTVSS VL: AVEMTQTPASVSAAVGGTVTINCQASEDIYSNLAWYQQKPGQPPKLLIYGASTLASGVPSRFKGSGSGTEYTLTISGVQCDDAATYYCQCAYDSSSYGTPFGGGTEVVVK	27.3
